# Tested on: Human colon carcinoma HCT-116 cells
# ASSAY: cells
# RUN CONDITIONS: HCT-116, 72 h, read-out: Cytotoxicity IC50, HCT-116
Recorded measurements of IC50, one per entry

Here's what some known entries look like.
Cc1ccc(Nc2c3ccccc3nc3c(C)cccc23)cc1NC(=O)Oc1ccc(N(CCCl)CCCl)cc1 = 610 nM
CCOC(=O)Nc1cc(COC(=O)Oc2ccc(N(CCCl)CCCl)cc2)cc(Nc2c3ccccc3nc3ccccc23)c1 = 640 nM
COc1ccc(Nc2c3ccccc3nc3ccccc23)cc1NC(=O)Oc1ccc(N(CCCl)CCCl)cc1 = 190 nM
Cc1ccc(Nc2c3ccccc3nc3ccccc23)cc1NC(=O)Oc1ccc(N(CCCl)CCCl)cc1 = 430 nM
Cc1ccc(NC(=O)Nc2ccc(N(CCCl)CCCl)cc2)cc1Nc1c2ccccc2nc2c(C)cccc12 = 160 nM
Cc1cccc2c(Nc3cc(CO)cc(NC(=O)Nc4ccc(N(CCCl)CCCl)cc4)c3)c3ccccc3nc12 = 260 nM

Switching to the query record.
Kindly note the recorded IC50 for COc1ccc(Nc2c3ccccc3nc3ccccc23)cc1NC(=O)Nc1ccc(N(CCCl)CCCl)cc1 , which is 260 nM

---

# Test system: prostate cancer (PC3)
# ASSAY: cells
# RUN CONDITIONS: read-out: Cytotoxicity IC50, PC3; Table 2
MEASURED METRIC: pIC50
pIC50 here is simply -log10 of the concentration when that concentration is written in mol/L.

Measured pIC50 of N.N.[Cl][Pt][Cl] [Cisplatin, reference compound] : 5.00

---

# Tested on: human mammary carcinoma MX-1 xenograft
# ASSAY: Antitumor therapeutic effect against MX-1 xenograft in nude mice
# Type: in vivo
# RUN CONDITIONS: i.v. injection; dose and schedule per compound as in Table 3
# Method: Athymic nude mice bearing the nu/nu gene were obtained from NCI, Frederick, Md. and used for all human tumor xenografts. Male nude mice 6 weeks or older weighing 20-24 g or more were used. […] Tumor volume was assessed by measuring length×width×height (or width) by using a caliper. […]
MEASURED METRIC: Maximal body-weight loss (%)
Record the value in %, omitting the unit from your answer.

Would you please look over these solved cases?
Cc1cc(NC(=O)Nc2ccc(N(CCCl)CCCl)cc2)cc(Nc2c3ccccc3nc3ccccc23)c1 [BO-1079] = 9
Cc1cccc2c(Nc3cc(CO)cc(NC(=O)Nc4ccc(N(CCCl)CCCl)cc4)c3)c3ccccc3nc12 [BO-1050] = 9
Cc1cc(NC(=O)Nc2ccc(N(CCCl)CCCl)cc2)c2ccccc2n1 [BO-1038] = 4
O=C(Nc1cc(CO)cc(Nc2c3ccccc3nc3ccccc23)c1)Oc1ccc(N(CCCl)CCCl)cc1 [BO-1062] = 17

Entry under test: Cc1ccc(Nc2c3ccccc3nc3c(C)cccc23)cc1NC(=O)Nc1ccc(N(CCCl)CCCl)cc1 [BO-1051] . Its Maximal body-weight loss (%) was 11

Summary for this molecule, COc1cc(NC(=O)Oc2ccc(N(CCCl)CCCl)cc2)cc(Nc2c3ccccc3nc3ccccc23)c1 [BO-1066] : Maximal body-weight loss (%) is 13

Documented Maximal body-weight loss (%) of O=C(Nc1ccc(N(CCCl)CCCl)cc1)Nc1cc(CO)cc(Nc2c3ccccc3nc3ccccc23)c1 [BO-1037] : 12

---

# ASSAY: Half-life in rat plasma
MEASURED METRIC: half-life
Please state the number and follow it with the unit.

Form field half-life, entry Cc1ccc(Nc2c3ccccc3nc3c(C)cccc23)cc1NC(=O)Nc1ccc(N(CCCl)CCCl)cc1 : 54 h
